# measurement.description: yeast display, Sf9 membrane polyspecificity reagent, FACS + sequencing; frameworks hold sequencing errors
assay.endpoint: polyreactivity (PSR sort gate)

Example sequences with recorded polyreactivity (PSR sort gate):
QVQLVESGGGLVQAGGSLRLSCAASGRIFGYYAMGWYRQAPGKERELVAAITRNGGSTYYADSVKGRFTISRDNAKNTVYLQMNSLKPEDTAVYYCAATKGGGRGYWGQGTQLTVSS; high polyreactivity
QVQLVESGGGLVQAGGSLRLSCAASGRIFGDNAMGWYRQAPGKERELVADITSSGGSTHYADSVKGRFTISRDNAKNNVYLQLNSLKPEDTEVYYCNADDYVYFDDGDYWGQGTQVTVSS; low polyreactivity
QVQLVESGGGLVQAGGSLRLSCAASGRILGRYAMGWYRQAPGKERELVAAISGSGTSTYYADSVKGRFTISRDNAKNTVYLQMNSLKPEDTAVYYCAAKWITRRGGDFDYWGQGTQVTVSS; high polyreactivity
QVQLVESGGGLVQAGGRLRLSCAASGGTFVPYAMGWYRQAPGTERELVARISKRGGTTYYADSVKGRFTISRDTAKNTVYLQMNSVKPEDTAVYYCGAVLPARGYYWGEGTQVTVSS; high polyreactivity

Req: Fill in the blank: the reported polyreactivity (PSR sort gate) of `QVQLVESVGGLVQAGGSLRLSCAASGSISGYYAMGWYRQAPGKERELVASIRYTGARTYYADSVKGRFTISRDNAKNTVYLQMHSLKPEDTAVYYCAADVNRDRVWGGDYWGQGTQVTVSS` is ____.
Resp: low polyreactivity
